Known pIC50 of a selection of molecules
# System name: Human autotaxin enzyme (Homo sapiens)
# Construct: purchased R&D System
# Protocol text: Evaluation of autotaxin inhibitor, Method B (Test Example 2): TG-mTMP fluorescence
# Format: biochemical
# Condition notes: Assay Method B (Test Example 2), human autotaxin; read-out: Inhibitory Activity (autotaxin enzyme inhibitory activity, IC50 class)
pIC50: −log10 of the molar value.

Notebook: "CN(C)CCNC(=O)c1ccc(-c2cc(=O)n3cc(-c4ccc(C#N)cc4)nc3n2CCCCC#N)cc1" , pIC50 read as > 8.00

Notebook: "CCCCCn1c(C)cc(=O)n2cc(-c3ccc(C(=O)OCC)cc3)nc12" , pIC50 read as < 6.00

Notebook: "CCCCCn1c(Oc2cccnc2)cc(=O)n2cc(-c3ccc(Cl)cc3)nc12" , pIC50 read as 6.00 to 7.00

Notebook: "CCCCCn1c(C)cc(=O)n2c(C=O)c(-c3ccc(Cl)cc3)nc12" , pIC50 read as 6.00 to 7.00

Notebook: "CCCCCn1c(-c2ccc(NCC(C)C)nc2)cc(=O)n2cc(-c3ccc(Cl)cc3)nc12" , pIC50 read as > 8.00

Notebook: "CCCCCn1c(NCCN(C)C)cc(=O)n2cc(-c3ccc(Cl)cc3)nc12" , pIC50 read as 7.00 to 8.00

Notebook: "CCCCCn1c(-c2ccc(N)cc2)cc(=O)n2cc(-c3ccc(Cl)cc3)nc12" , pIC50 read as 7.00 to 8.00

Notebook: "COCCCCn1c(C)cc(=O)n2cc(-c3ccc(Cl)cc3)nc12" , pIC50 read as 7.00 to 8.00
